Test system: TO-3-N3-2 (biotin conjugate)
Experiment: pull-down binding Z-score (relative to library population); higher = stronger binding
Conditions: RNA library: Library-2
Recorded pull-down binding Z-score by entry
Please state the value as a number alone, without comment.

Solved cases below.
GGGAGCGGCCCUCACAUUGAUGGCUCCU [hsa-mir-6727] = -0.052
AUGAUAUAUUGUGAGAGCCAUGUCAU [hsa-mir-6718] = -0.0702
GCUAUCUAACCUUAACUUGCCUGGUUGUGAUGGU [SHAPE_invivo_SARS-CoV-2_Motif_361] = 0.311

Okay, next one:
Ask | Returns the measured pull-down binding Z-score for the input sequence. Input: UCUUCCCGGAGUCGGGAAAA [hsa-mir-320a]
Reply | -0.307
